tested on: SF-268 CNS; assay: NCI-60 one-dose screen, 48 h (100 = growth as untreated, 0 = no growth, -100 = all killed); settings: 10 µM
About 83,000 compounds went through this panel and 20% of them were active in at least one assay; those are over-represented in the sample as a whole.
Each item that follows carries a reported growth.
# number only, unit % dropped from output

Use the examples below as a reference point.
C#CCSc1nnnn1-c1ccc(Br)c(C)c1 ... 99.2
CN(C)c1ccc(C(c2ccc(O)cc2)c2ccc(N(C)C)cc2)cc1 ... 92.1
COS(=O)(=O)c1ccc(Br)cc1 ... 84.9
N/N=C(/Cc1ccccc1)NNC(N)=S ... 97.4
COc1ccc(C2(O)CCCCC2)cc1 ... 105

Task: Give reported growth value for CC(=Nc1ccccc1)C1=C(O)C(Cc2cccc(F)c2)NC1=O (stereo not drawn)
Output: 31.1

Task: Give the measured growth for "CCCC(=O)Nc1ccc2c(c1)CN1C(=O)c3ccccc3C1=N2"
Output: 101

Task: Consider the compound "NC(=O)NC(=O)c1ccc(Cl)cc1" and give its recorded growth.
Output: 113

Task: Kindly indicate its recorded growth. Item: Oc1ccc2c(c1)OCC1(O)Cc3cc(O)c(O)cc3C21 (stereo not drawn)
Output: 96.8

Task: State, in one line, measured growth of C#CC(C(C)C)N(CCO)CCCC (stereo not drawn)
Output: 102

Task: Supply measured growth of "COc1cc2nc3cc([N+](=O)[O-])ccc3c(Cl)c2cc1OC" in your reply.
Output: 99.8

Task: Give me measured growth, please, for this compound: CC(=O)OC1CC2C(C)(C)OC3CC(=O)OCC32C2CCC3(C)C(=CCC3c3ccoc3)C12C (stereo not drawn)
Output: 98.6

Task: Consider the compound COc1cc(C2c3cc4c(cc3C3OC(=O)C2C3CO)OCO4)cc(OC)c1OC (stereo not drawn) and give its recorded growth.
Output: 30.3
